Entries and their melting point

# molecule, melting point
records = [
    ("CC(=O)c1ccc2c(c1)CC(=O)N2", "217 to 219 °C"),
    ("COc1ncc(F)c(O)n1", "195 to 197 °C"),
    ("CN(C)C(=N)CC#N", "79 to 81 °C"),
    ("CCOC(=O)Cc1cccc(C#N)c1", "47 to 49 °C"),
    ("CS(=O)(=O)Cc1nc(Cl)c(Br)c(Cl)n1", "174 to 176 °C"),
    ("O=C(NC1CC=CCC1)C(F)(F)F (stereo not drawn)", "58 to 60 °C"),
    ("CCOc1ccc(C(C)=O)cc1OCC", "49 to 51 °C"),
    ("O=C(O)c1ccc2cccnn12", "132 to 134 °C"),
]

Cited source for all entries: a melting point compilation (Tetko et al.)
